The reported numbers originate from patent US10618964B2.

This section presents binders with their documented OD450 ratio sample/blank values.
# targetUnderTest: native soluble IL-6R in human plasma (human, UniProt P08887)
# procedureText: ELISA 3, periplasmic extract; competitor BN-12; human plasma
metricName: OD450 ratio sample/blank

binder	experimentalResult
IL6RPMP107E4 (VHH) VHH: EVQLVESGGGLVQAGGSLRLSCAASGSIDRINAMGWYRQAPGKQRDFLAVITDGDKTLYADSVKGRFTISNDNAKNTVYLQMNSLKPEDTAVYYCNAYQAGWGDYWGQGTQVTVSS	1.02
IL6RPMP103B2 (VHH) VHH: EVQLVESGGGLVQPGGSLRLSCAASGSTFSINMMAWYCQAPGKQRELVASISSGGGINYADSVKGRFTISRDYAENSVDLQMNSLKPEDTAVYYCNARGTYLNGDHYSTNYNSWGQGTQVTVSS	1.02
IL6RPMP120D2 (VHH) VHH: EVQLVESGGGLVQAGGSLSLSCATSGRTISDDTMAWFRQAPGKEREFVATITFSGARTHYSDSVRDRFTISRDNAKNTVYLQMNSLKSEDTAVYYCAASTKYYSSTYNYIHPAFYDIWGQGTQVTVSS	0.993
IL6RPMP101A4 (VHH) VHH: EVQLVESGGGTVQAGGSLKLSCAASGRTFTNYAMGWFRQAPGKEREFVAAIAYATHFADSVKGRFTISRGNAKNTVYLQMNSLKPEDAAVYYCAADLSLSKMVSKITSDMDYWGKGTLVTVSS	0.99
